Tested on: Aspergillus fumigatus
assay_notes: Antifungal activity against Aspergillus fumigatus at 100 ug/ml by disc diffusion method
Type: functional
condition_summary: read-out: IZ
reported_endpoint: zone of inhibition at 100 µg/mL
Kindly report the value followed by its unit.

Fill blank: measured zone of inhibition at 100 µg/mL of the compound Clc1nc2ccccc2cc1Cn1nnc(Cc2ccccc2)n1 is ____.
16 mm

I have this compound here, COc1ccc2nc(Cl)c(Cn3nnnc3CSc3ccccc3)cc2c1 , and I need its recorded zone of inhibition at 100 µg/mL.
18 mm

Need zone of inhibition at 100 µg/mL, item Cc1ccc2nc(Cl)c(Cn3nnnc3Cc3ccccc3)cc2c1
10 mm

Could you tell me which zone of inhibition at 100 µg/mL is on file for Fc1ccc2nc(Cl)c(Cn3nnc(CSc4ccccc4)n3)cc2c1 ?
13 mm

Item Fc1ccc2nc(Cl)c(Cn3nnnc3Cc3ccccc3)cc2c1 has what recorded zone of inhibition at 100 µg/mL?
10 mm

If you can, please state the reported zone of inhibition at 100 µg/mL value of Clc1nc2ccccc2cc1Cn1nnc(CSc2ccccc2)n1 .
15 mm

Please give the measured zone of inhibition at 100 µg/mL for this compound: Fc1ccc2nc(Cl)c(Cn3nnc(Cc4ccccc4)n3)cc2c1
15 mm
